System: rabbit antisera to 24S-hydroxycholesterol (Day 77, rabbit #71)
ASSAY: Cross-reactivity in competitive 24HC enzyme immunoassay, antiserum of rabbit #71
Type: binding
CONDITION_DETAILS: Table 3; antiserum Day 77, rabbit #71
ENDPOINT: Bleed #71 % Cross reactivity (%)
Give the value in % but do not write % after it.

{"COMPOUND": "C[C@]12CC[C@H](O)CC1=CC[C@@H]1[C@@H]2CC[C@]2(C)C(=O)CC[C@@H]12 [DHEA]", "ENDPOINT": "Bleed #71 % Cross reactivity", "ENDPOINT_VALUE": 0.015}
{"COMPOUND": "CC(C)CCC[C@@H](C)[C@H]1CC[C@H]2[C@@H]3CC=C4C[C@@H](O)CC[C@]4(C)[C@H]3CC[C@]12C [Cholesterol]", "ENDPOINT": "Bleed #71 % Cross reactivity", "ENDPOINT_VALUE": 0.002}
{"COMPOUND": "CC(C)CC[C@@H](O)[C@@H](C)[C@H]1CC[C@H]2[C@@H]3CC=C4CC(O)CC[C@]4(C)[C@H]3CC[C@]12C (stereo in doubt) [22-Hydroxycholesterol]", "ENDPOINT": "Bleed #71 % Cross reactivity", "ENDPOINT_VALUE": 0.020}
{"COMPOUND": "C[C@H](CCCC(C)(C)O)[C@H]1CC[C@H]2[C@@H]3CC=C4C[C@@H](O)CC[C@]4(C)[C@H]3CC[C@]12C [25-Hydroxycholesterol]", "ENDPOINT": "Bleed #71 % Cross reactivity", "ENDPOINT_VALUE": 0.19}

Turning now to a further compound:
QUERY: Answer with the recorded Bleed #71 % Cross reactivity of C[C@@H](CO)CCC[C@@H](C)[C@H]1CC[C@H]2[C@@H]3CC=C4C[C@@H](O)CC[C@]4(C)[C@H]3CC[C@]12C [27-Hydroxycholesterol] only.
RESULT: 0.022
